molecular target: UniProt:P25090; experiment: Ca2+ mobilization (agonist activity) in FPR2-HL60 cells; conditions: response to 5 nM WKYMVM = 100%
Please respond with reported Ca2+ Mobilization HL60-FPR2 Efficacy for every item in the list.
Kindly answer with a numeric value in %, unit omitted.

Task: Using the record for `N#Cc1ccc(C[C@H](NC(=S)Nc2ccc(Br)cc2)C(=O)N2CCc3ccccc32)cc1` , state its measured Ca2+ Mobilization HL60-FPR2 Efficacy.
Result: 65

Task: Using the record for `N#Cc1ccc(C[C@H](NC(=O)Nc2ccc(Br)cc2)C(=S)N2CCc3ccccc32)cc1` , state its measured Ca2+ Mobilization HL60-FPR2 Efficacy.
Result: 150

Task: Using the record for `N#Cc1ccc(C[C@H](NC(=O)Nc2ccc(F)cc2)C(=S)NCC2(c3ccc(F)c(Cl)c3)CC2)cc1` , state its measured Ca2+ Mobilization HL60-FPR2 Efficacy.
Result: 145

Task: Using the record for `N#Cc1ccc(C[C@H](NC(=O)Nc2ccc(F)cc2)C(=S)N2CCc3ccccc32)cc1` , state its measured Ca2+ Mobilization HL60-FPR2 Efficacy.
Result: 170

Task: Using the record for `N#Cc1ccc(C[C@H](NC(=S)Nc2ccc(F)cc2)C(=O)N2CCc3ccccc32)cc1` , state its measured Ca2+ Mobilization HL60-FPR2 Efficacy.
Result: 65

Task: Using the record for `N#Cc1ccc(C[C@H](NC(=S)Nc2ccc(F)cc2)C(=O)N2CCc3ccc(F)cc32)cc1` , state its measured Ca2+ Mobilization HL60-FPR2 Efficacy.
Result: 105

----------
Please respond with reported pIC50 for every item in the list.
molecular target: FPR2 (Homo sapiens, UniProt P25090); assay: FPR2 desensitization: inhibition of WKYMVM-induced Ca2+ mobilization in FPR2-HL60 cells; conditions: 10 min preincubation, then 5 nM WKYMVM
Sequence (P25090 whole entry): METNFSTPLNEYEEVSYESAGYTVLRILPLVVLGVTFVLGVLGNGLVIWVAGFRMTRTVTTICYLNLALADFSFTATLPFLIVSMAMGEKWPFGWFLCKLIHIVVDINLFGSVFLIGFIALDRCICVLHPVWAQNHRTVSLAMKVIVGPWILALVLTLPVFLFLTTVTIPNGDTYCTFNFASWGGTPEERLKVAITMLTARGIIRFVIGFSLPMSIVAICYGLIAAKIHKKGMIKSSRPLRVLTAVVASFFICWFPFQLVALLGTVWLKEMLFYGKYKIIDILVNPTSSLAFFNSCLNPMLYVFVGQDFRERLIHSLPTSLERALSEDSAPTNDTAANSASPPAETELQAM
Give only the number. pIC50 is defined as minus log10 of concentration in molar units.

Task: Using the record for N#Cc1ccc(C[C@H](NC(=S)Nc2ccc(Br)cc2)C(=O)N2CCc3ccccc32)cc1 [6b] , state its measured pIC50.
Result: 5.66

Task: Using the record for N#Cc1ccc(C[C@H](NC(=O)Nc2ccc(F)cc2)C(=S)NCC2(c3ccc(F)c(Cl)c3)CC2)cc1 [7a] , state its measured pIC50.
Result: 6.52

Task: Using the record for N#Cc1ccc(C[C@H](NC(=O)Nc2ccc(F)cc2)C(=S)N2CCc3ccccc32)cc1 [7b] , state its measured pIC50.
Result: 7.22

Task: Using the record for N#Cc1ccc(C[C@H](NC(=O)Nc2ccc(Br)cc2)C(=S)N2CCc3ccccc32)cc1 [8b] , state its measured pIC50.
Result: 8.15

----------
target: FPR2 (Homo sapiens); assay: FPR2 desensitization: inhibition of WKYMVM-induced Ca2+ mobilization in FPR2-HL60 cells; type: cell-based; parameters: expressed in transfected cells; host or cells: HL-60 cells; details: 10 min preincubation, then 5 nM WKYMVM
Outcome measure: Ca2+ Mobilization HL60-FPR2 IC50 (FPR2 desensitization)

> print(dat)
                                   molecule  assay.result
1  N#Cc1ccc(C[C@H](NC(=S)Nc2ccc(F)cc2)C(=O)N2CCc3ccc(F)cc32)cc1 [5c]      inactive
2  N#Cc1ccc(C[C@H](NC(=S)Nc2ccc(F)cc2)C(=O)N2CCc3ccccc32)cc1 [5b]      inactive
